# pKd measurements, system: S100A14 (Homo sapiens, UniProt Q9HCY8)
# Sequence (Q9HCY8 whole entry): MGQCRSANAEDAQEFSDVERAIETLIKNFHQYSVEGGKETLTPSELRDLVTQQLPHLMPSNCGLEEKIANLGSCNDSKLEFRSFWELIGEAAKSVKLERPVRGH
pKd: −log10 of the molar value.
assay endpoint: pKd

>>> assay_result("CC[C@H](C)[C@@H](CC(=O)N[C@H]1CCCC[C@@H]1C(=O)N[C@H]1CCCC[C@@H]1C(=O)N[C@H](CC(=O)N[C@H]1CCCC[C@@H]1C(=O)NCC(=O)N[C@@H](CCCCNC(=O)c1ccc2c(c1)C1(OC2=O)c2ccc(O)cc2Oc2cc(O)ccc21)C(N)=O)CC(C)C)NC(=O)[C@H]1CCCC[C@@H]1N")
"< 3.00"
>>> assay_result("CC(C)C[C@@H](CC(=O)N[C@H]1CCCC[C@@H]1C(=O)NCC(=O)N[C@@H](CCCCNC(=O)c1ccc2c(c1)C1(OC2=O)c2ccc(O)cc2Oc2cc(O)ccc21)C(N)=O)NC(=O)[C@H]1CCCC[C@@H]1NC(=O)[C@H]1CCCC[C@@H]1NC(=O)C[C@@H](NC(=O)[C@H]1CCCC[C@@H]1N)C(C)C")
"< 3.00"
